We begin with a simple list: items and their reported IC50.
# experimental system: GSK3α (GST-full length GSK3α) (Homo sapiens (Human), UniProt P49840)
# Sequence (P49840 whole entry): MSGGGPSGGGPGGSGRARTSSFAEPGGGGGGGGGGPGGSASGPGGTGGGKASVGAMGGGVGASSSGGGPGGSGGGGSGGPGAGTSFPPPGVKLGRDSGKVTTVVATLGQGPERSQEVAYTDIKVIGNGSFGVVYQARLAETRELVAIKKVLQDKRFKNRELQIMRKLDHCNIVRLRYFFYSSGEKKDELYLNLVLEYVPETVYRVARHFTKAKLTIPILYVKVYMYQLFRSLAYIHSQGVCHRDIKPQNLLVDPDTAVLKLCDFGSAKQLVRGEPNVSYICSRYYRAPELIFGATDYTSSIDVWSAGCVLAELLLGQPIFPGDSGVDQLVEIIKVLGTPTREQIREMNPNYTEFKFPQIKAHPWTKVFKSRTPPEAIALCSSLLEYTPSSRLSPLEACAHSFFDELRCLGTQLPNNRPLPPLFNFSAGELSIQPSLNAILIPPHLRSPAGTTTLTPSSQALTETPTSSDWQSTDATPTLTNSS
# run description: GSK3α TR-FRET kinase assay
# Assay type: biochemical
# particulars: read-out: GSK3-A (TR-FRET 1 mM ATP); GMean; IC50; 1 mM ATP; geometric mean

compound	IC50
CC(C)(C)Cc1[nH]nc2c1[C@@](C)(c1cccc(S(=O)(=O)CC3CC3)c1)C1=C(CC(C)(C)NC1=O)N2	> 5000 nM
CCC1(c2cccc(-c3cnc(C)n3C)c2)C2=C(CC(C)(C)CC2=O)Nc2n[nH]cc21 (stereo not drawn)	100 to 1000 nM
CC(=O)N1CC2(C1)C[C@]1(CO2)C2=C(CC(C)(C)CC2=O)Nc2n[nH]cc21	≤ 100 nM
CC[C@]1(c2cccc(-c3cn(C)nc3C)c2)C2=C(CC(C)(C)NC2=O)Nc2n[nH]cc21	100 to 1000 nM
CC[C@@]1(c2cccc(N(C)c3ncccn3)c2)C2=C(CC(C)(C)C2=O)Nc2n[nH]cc21	100 to 1000 nM
CC[C@@]1(c2cccc(-c3ccnc(C)c3)c2)C2=C(CC(C)(C)NC2=O)Nc2n[nH]c(Cl)c21	100 to 1000 nM
CCC1(c2cccc(-c3ccncc3C)c2)C2=C(CC(C)(C)CC2=O)Nc2n[nH]cc21 (stereo not drawn)	≤ 100 nM
CC[C@@]1(c2cccc(N(C)c3ncccn3)c2)C2=C(CC(C)(C)NC2=O)Nc2n[nH]c(F)c21	≤ 100 nM
CCC1(c2cccc(-c3ccnc(C)c3C)c2)C2=C(CC(C)(C)CC2=O)Nc2n[nH]c(C(F)(F)F)c21 (stereo not drawn)	≤ 100 nM
CCC1(c2cccc(C3CCCC3)c2)C2=C(CC(C)(C)CC2=O)Nc2n[nH]cc21 (stereo not drawn)	100 to 1000 nM

// query May I ask what IC50 has been recorded for CC[C@@]1(c2cccc(C(C)C)c2)C2=C(CC(C)(C)CC2=O)Nc2n[nH]cc21 ?
// result 100 to 1000 nM

// query Param item: CCC1(c2cccc(C(F)F)c2)C2=C(CC(C)(C)NC2=O)Nc2n[nH]c(C(F)(F)F)c21 (stereo not drawn)
// result ≤ 100 nM

###

# experimental system: GSK3b (GST-full length GSK3b) (Homo sapiens (Human), UniProt P49841)
# Sequence (P49841 whole entry): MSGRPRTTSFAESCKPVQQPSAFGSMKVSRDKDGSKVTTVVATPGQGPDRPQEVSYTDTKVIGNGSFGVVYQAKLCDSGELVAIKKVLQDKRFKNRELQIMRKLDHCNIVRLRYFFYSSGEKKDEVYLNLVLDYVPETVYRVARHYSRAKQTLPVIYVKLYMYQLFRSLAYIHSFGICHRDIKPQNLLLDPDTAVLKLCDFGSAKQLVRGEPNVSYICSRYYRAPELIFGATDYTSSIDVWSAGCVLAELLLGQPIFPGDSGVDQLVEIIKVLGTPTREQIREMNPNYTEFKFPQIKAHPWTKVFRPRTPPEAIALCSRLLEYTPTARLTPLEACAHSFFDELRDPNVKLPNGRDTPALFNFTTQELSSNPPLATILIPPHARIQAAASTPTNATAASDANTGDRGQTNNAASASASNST
# run description: GSK3b TR-FRET kinase assay
# Format: biochemical
# particulars: 1 nM GSK3b, 2 μM ATP, 30 minute preincubation; read-out: GSK3-B TR-FRET BIOCHEMICAL (TR-FRET); IC50
pIC50: −log10 of the molar value.
Let's look at some compounds and their measured pIC50.

Completed entries (count: 6):
compound	experimental system	pIC50
CC1(C)CC(=O)C2=C(C1)Nc1n[nH]cc1C21CCN(S(=O)(=O)c2ccc3ccccc3n2)CC1	GSK3b (GST-full length GSK3b) (Homo sapiens (Human), UniProt P49841)	≥ 7.00
CCC1(c2cccc(C(F)(F)F)c2)C2=C(CCN(CC(F)(F)F)C2=O)Nc2n[nH]cc21 (stereo not shown)	GSK3b (GST-full length GSK3b) (Homo sapiens (Human), UniProt P49841)	6.00 to 7.00
CC[C@]1(c2cccc(C(F)(F)F)c2)C2=C(C[C@H](c3ccccc3)NC2=O)Nc2n[nH]cc21	GSK3b (GST-full length GSK3b) (Homo sapiens (Human), UniProt P49841)	< 5.30
CC1(C)CC(=O)C2=C(C1)Nc1n[nH]cc1C21COC2(CN(C(=O)C3(F)CCC3)C2)C1 (stereo not shown) [Compound 947279]	GSK3b (GST-full length GSK3b) (Homo sapiens (Human), UniProt P49841)	≥ 7.00
CCC1(c2cccc(C(F)(F)F)c2)C2=C(Nc3n[nH]cc31)C(C)NC2=O (stereo not shown) [Compound 945378]	GSK3b (GST-full length GSK3b) (Homo sapiens (Human), UniProt P49841)	6.00 to 7.00
CCC1(c2cccc(C(F)(F)F)c2)C2=C(CC(c3ccccc3)NC2=O)Nc2n[nH]cc21 (stereo not shown) [Compound 917284]	GSK3b (GST-full length GSK3b) (Homo sapiens (Human), UniProt P49841)	5.30 to 6.00

// query Could you share what pIC50 was measured for Cc1cc(C)cc(C(=O)N2CC3(C2)C[C@]2(CO3)C3=C(CC(C)(C)CC3=O)Nc3n[nH]cc32)c1 , tested on GSK3b (GST-full length GSK3b) (Homo sapiens (Human), UniProt P49841)?
// result ≥ 7.00
